Recorded values, source PubChem BioAssay (Tox21).

- Target of assay: Thyrotropin-releasing hormone receptor (Homo sapiens)
- Assay protocol: qHTS assay to identify small molecule agonists of the thyrotropin-releasing hormone receptor (TRHR) signaling pathway (AID 1346891);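 note: HEK293 cells expressing TRHR with calcium dye readout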
- Details: TRHR-HEK293 calcium fluorescence, agonist mode; series mostly up to 57.6 µM
The source made the active and inactive calls. Calls come from the whole dose curve.
Recorded endpoint: activation

O=C(CCCCCCCCC#CI)Oc1ccccc1 :: inactive
CCC(C(=O)OCCN(CC)CC)c1ccccc1 (configuration not stated) :: inactive
COC(OC)(C(=O)c1ccccc1)c1ccccc1 :: inactive
CCCCCC=CCC=CCCCCCCCC(=O)OCC :: inactive

### Prompt Quick one: activation of "O=C(O)c1cccc(O)c1" ?
### Response inactive

### Prompt // repeat for "COCCOC" and report
### Response inactive
